Kindly state GI50 for each of the entries shown.
- Tested on: RXF 393
- method_description: NCI tumour cell line growth inhibition, 48 h
Active and inactive are the calls of the source. No stated cut-off is given here; in the data, active = GI50 up to about 1.1 µM and inactive = higher.

compound	measured_property	value_reported
O=C1NC(=S)NC(=O)C1C(c1ccc(Cl)cc1)C1C(=O)NC(=S)NC1=O.c1ccncc1	GI50	> 100 µM (inactive)
Oc1nnnc2c1sc1ncccc12	GI50	> 100 µM (inactive)

# map each compound to its GI50
1. N#CCCN(CCC#N)CCN(CCN(CCC#N)CCC#N)CCN(CCC#N)CCC#N
2. O=C(N/N=C\C(F)(F)F)c1ccncc1
3. C[C@@H]1CCC2C(C)(C)C(/C=C\C=O)C3(C)OC213 (stereo partly drawn)
4. O=C(O)Cc1cccc2c(=O)c3cccc([N+](=O)[O-])c3oc12
5. CCCCCc1nnc(NS(=O)(=O)c2ccc(NC(=O)OCC(C)C)cc2)s1
6. O=C1NC2c3c(I)sc(I)c3C(O)C2O1 (stereo not drawn)

Ans:
1: > 100 µM (inactive); 2: 13.9 µM (inactive); 3: 33.3 µM (inactive); 4: > 100 µM (inactive); 5: 74.8 µM (inactive); 6: > 100 µM (inactive)

* * *

- Tested on: ACHN
- method_description: NCI tumour cell line growth inhibition, 48 h
The source made the active and inactive calls. Cut-off read from the data, not from the text of the source: active = GI50 up to about 1.1 µM and inactive = higher.
Tick one outcome: active, inactive

As a guide, the following entries are already answered.
compound	assay_system	assigned_category
Nc1c(Br)cc2c(c1Br)Cc1cc(Br)ccc1-2	ACHN	inactive
CCN(CC)C(=S)N/N=C/c1cc([N+](=O)[O-])ccc1O	ACHN	inactive

Q: Fill in: this test's call for "O=c1c(O)c(-c2ccc(O)c(O)c2)oc2cc(O)cc(O)c12" is ___
Ans: inactive

Q: Fill in: this test's call for "CC(=O)CC(=O)Nc1ccccc1[N+](=O)[O-]" is ___
Ans: inactive

Q: Fill in: this test's call for "O=c1/c(=C/c2c(O)ccc3ccccc23)sc2nc3ccccc3n12" is ___
Ans: inactive

Q: Fill in: this test's call for Cc1ccc(NC(=O)CC(=O)N2N=C(N(C)c3ccccc3)CC2c2ccccc2)cc1 (stereo not given) is ___
Ans: inactive

Q: Fill in: this test's call for "COc1ccc(-n2nnc3c(C#N)c(-c4ccccc4)c(C)n3c2=O)cc1" is ___
Ans: inactive

Q: Fill in: this test's call for Cc1cn(C2CC(O)C(COP(=O)(O)OC3CC(n4c[n+]([BH2-]C#N)c5c(=O)[nH]c(N)nc54)OC3CO)O2)c(=O)[nH]c1=O (stereo not given) is ___
Ans: inactive

Q: Fill in: this test's call for "C/C(=N\Nc1nc2ccccc2n1C)c1ccncn1" is ___
Ans: active

Q: Fill in: this test's call for "OCCCCCNc1ccnc2cc(Cl)ccc12" is ___
Ans: inactive

* * *

- System: IGROV-1
- method_description: NCI tumour cell line growth inhibition, 48 h
Calls of active or inactive are those of the source. No stated cut-off is given here; in the data, active = GI50 up to about 1.1 µM and inactive = higher.
measured_property: GI50

Study these solved cases before continuing.
compound	measured_property	value_reported
Cn1ccc2c(c1=O)C(=O)OC2(C)C	GI50	> 100 µM (inactive)
O=C(/C=C/c1ccc(O)c(O)c1)OCCCc1ccccc1	GI50	3.34 µM (inactive)
COc1cc2oc(-c3ccc4c(c3)OCO4)c(OC)c(=O)c2c(OC)c1OC	GI50	67.9 µM (inactive)

# map each compound to its GI50
1. OC(c1ccccc1)(c1ccccc1)c1ccncc1
2. O=C(CCCN1CCC2(CC1)CC(=O)N(N1CCOCC1)C2=O)c1ccccc1
3. N#Cc1ccc(/C=N/NC(=O)CSCC(=O)N/N=C/c2ccc(C#N)cc2)cc1
4. N#CC(C(=O)CCC(=O)Nc1ccc(Cl)c(Cl)c1)c1ccccc1 (stereo unspecified)
5. COC(=O)C(CC(=O)c1ccccc1)c1ccccc1NC(C)=O (stereo unspecified)

Ans:
1: > 100 µM (inactive); 2: > 100 µM (inactive); 3: > 100 µM (inactive); 4: > 100 µM (inactive); 5: > 100 µM (inactive)

* * *

- Test system: 786-0
- method_description: NCI tumour cell line growth inhibition, 48 h
Active and inactive are the calls of the source. Cut-off read from the data, not from the text of the source: active = GI50 up to about 1.1 µM and inactive = higher.
Tick one outcome: active, inactive

smiles_representation	assigned_category
COc1ccc(OC)c2c1C=CC(Br)=CC2	active

Q: Fill in: this test's call for "CCOP(=O)(OCC)/C(C#N)=C/c1ccc[nH]1" is ___
Ans: inactive

* * *

- System: SF-295
- method_description: NCI tumour cell line growth inhibition, 48 h
Activity calls are given as the source filed them. Rule as the data show it: active = GI50 up to about 1.1 µM and inactive = higher.
measured_property: GI50

Study these solved cases before continuing.
compound	GI50
CC(=O)/C(=C/n1c(=S)[nH]c2ccccc21)C(=O)Nc1ccccc1C	> 100 µM (inactive)
[N-]=[N+]=Nc1cc(=O)[nH]c2ccccc12	> 100 µM (inactive)

# map each compound to its GI50
1. COc1ccc(OC)c2c1C=CC(Br)=CC2
2. COc1cc(-c2cc(=O)c3cc(C)c(C)c(C(=O)O)c3o2)cc(OC)c1OC
3. Cc1ccc(Nc2nc(N)nc3c2ncn3C2OC(CO)C(O)C2O)cc1 (centres undefined)
4. C[C@]12CC[C@H]3[C@@H](CCC4=CC(=O)CC[C@@]43C)[C@]1(O)CC[C@]2(O)C(=O)CO
5. CCCNc1ncnc2c1ncn2C

Ans:
0.16 µM (active)
> 100 µM (inactive)
> 100 µM (inactive)
> 100 µM (inactive)
40.6 µM (inactive)

# map each compound to its GI50
1. c1ccc(-c2nc(-c3ccccc3)c(-c3ccccc3)[nH]2)cc1
2. CC(=O)O[C@H]1CCC2[C@@H]3CCC4=C(O)c5nocc5C[C@]4(C)C3CC[C@@]21C (some centres undefined)
3. CCN(CC)CC(C)(C)C(=O)/C=C/c1cccc(/C=C/C(=O)C(C)(C)CN(CC)CC)c1
4. Cc1cccc(-n2c(C)nc3ccc(NC4OC(CO)C(O)C(O)C4O)cc3c2=O)c1 (centres undefined)
5. O=C1Nc2ccc(Cl)cc2C(=O)N2CCC[C@@H]12
6. COc1cc(N(CCC#N)CCC#N)ccc1C(/N=N/c1cccc([N+](=O)[O-])c1)=N\NC(=O)c1ccc(C)cc1

Ans:
1: > 100 µM (inactive); 2: > 100 µM (inactive); 3: 1.74 µM (inactive); 4: > 100 µM (inactive); 5: > 100 µM (inactive); 6: > 100 µM (inactive)

* * *

- System: MDA-MB-435
- method_description: NCI tumour cell line growth inhibition, 48 h
Calls of active or inactive are those of the source. Cut-off read from the data, not from the text of the source: active = GI50 up to about 1.1 µM and inactive = higher.
Tick one outcome: yes (active), no (inactive)

As a guide, the following entries are already answered.
compound	assigned_category
CSc1ccc2c(cc1=O)[C@@H](NC(=O)c1ccc(N)cc1)CCc1cc(O)c(O)c(O)c1-2	no
O=C(Nc1ccc(C(F)(F)F)cc1[N+](=O)[O-])c1cccnc1	yes
O=C1/C(=C/Cc2ccco2)N=C(c2ccccc2)N1c1nc2ccc(Sc3ccccc3)cc2[nH]1	no
CC1=C2C(=CO[C@H](C)[C@H]2C)C(O)=C(C(=O)O)C1=O	no
O=C1NC(=S)N/C1=C\c1ccc(Br)s1	no

Q: Fill in: this test's call for "COc1ccc(/C=C2/CCS(=O)(=O)c3ccc(C)cc3C2=O)cc1OC" is ___
Ans: no

Q: Fill in: this test's call for "COc1cc2cc3c4cc(OC)c(OC)cc4cc[n+]3c(C)c2cc1OC" is ___
Ans: no

* * *

Kindly state GI50 for each of the entries shown.
- System: Malme-3M
- method_description: NCI tumour cell line growth inhibition, 48 h
Activity calls are given as the source filed them. No stated cut-off is given here; in the data, active = GI50 up to about 1.1 µM and inactive = higher.

Study these solved cases before continuing.
compound	GI50
S=C(N/N=C(/c1ccccc1)c1ccccn1)Nc1cccc(Cl)c1	0.119 µM (active)
COc1ccc(C(=O)O/N=C2/CCCCC2CN(C)C)cc1 (stereo unspecified)	> 100 µM (inactive)
Cc1ccc(C(=O)N/N=C(\N=N\c2cccc(Cl)c2)c2ccc(N(CCC#N)CCC#N)cc2C)cc1	> 100 µM (inactive)
CCN1CCN=c2c3cc(OC)ccc3n3cnc4ccc1c2c43	0.267 µM (active)
CCOC(=O)c1nnsc1N/N=C\c1ccc([N+](=O)[O-])cc1	> 100 µM (inactive)

# map each compound to its GI50
1. Nc1ccc2c(c1)CC1c3ccccc3C(C2)c2ccccc21
2. CCCCCCCCCCCCOC(=S)NC

Ans:
1: > 100 µM (inactive); 2: 21.6 µM (inactive)

# map each compound to its GI50
1. COc1cc2c(cc1O)[C@H](C)C(c1ccccc1OC)O2 (stereo partly specified)
2. Cc1ccc(/C=C2\CCCC(CN3CCCCC3)C2=O)cc1 (stereo unspecified)
3. O=C1C=C(OCCCCl)C(=O)c2c(O)ccc(O)c21

Ans:
1: 4.14 µM (inactive); 2: 2.51 µM (inactive); 3: 0.167 µM (active)

Q: Any idea what its GI50 is? The compound is C[C@@H]1CCC2C(C)(C)C(/C=C\C=O)C3(C)OC213 (stereo partly specified)
Ans: 24.5 µM (inactive)

Entry source: ChEMBL document CHEMBL1201862
